- System: SNB-75
- PROTOCOL SUMMARY: Growth inhibition of human SNB75 cells incubated for 48 hrs by sulforhodamine B assay
- Type: functional
- RUN CONDITIONS: SNB-75, 48 h
REPORTED METRIC: GI50 (nM)
# number only, unit nM dropped from output

Request: Which GI50 is reported for this molecule? C=C1CC[C@@H]2[C@](C)(COC(C)=O)[C@H](OC(C)=O)CC[C@@]2(C)[C@H]1CC(Nc1ccc(S(=O)(=O)Nc2ccc(Cl)nn2)cc1)C1=CCOC1=O (stereo not given in full)
Result: 1440

Request: Also C=C1CC[C@@H]2[C@](C)(COC(C)=O)[C@H](OC(C)=O)CC[C@@]2(C)[C@H]1CC(Nc1ccc(S(=O)(=O)Nc2nccs2)cc1)C1=CCOC1=O (stereo not given in full) , if possible.
Result: 2830

Request: Record: C=C1CC[C@@H]2[C@](C)(COC(C)=O)[C@H](OC(C)=O)CC[C@@]2(C)[C@H]1CC(Nc1ccc(S(=O)(=O)Nc2ncccn2)cc1)C1=CCOC1=O (stereo not given in full)
Result: 1270

Request: For C=C1CC[C@@H]2[C@](C)(COC(C)=O)[C@H](OC(C)=O)CC[C@@]2(C)[C@H]1CC(Nc1ccc(S(=O)(=O)Nc2nccc(C)n2)cc1)C1=CCOC1=O (stereo not given in full) then?
Result: 2690

Request: Try C=C1CC[C@@H]2[C@](C)(COC(C)=O)[C@H](OC(C)=O)CC[C@@]2(C)[C@H]1CC(Nc1ccc(S(=O)(=O)Nc2cc(C)on2)cc1)C1=CCOC1=O (stereo not given in full) next.
Result: 2030

---

- Tested on: U-251
- PROTOCOL SUMMARY: Anticancer activity against human U251 cells assessed as cell growth at 10 uM after 48 hrs by sulforhodamine B assay relative to control
- Assay type: functional
- RUN CONDITIONS: U-251, 48 h, read-out: Activity
REPORTED METRIC: growth at 10 µM (%)
Write it as a number; the unit % goes unstated.

Request: What does the data say about its growth at 10 µM? Entry: C=C1CC[C@@H]2[C@](C)(COC(C)=O)[C@H](OC(C)=O)CC[C@@]2(C)[C@H]1CC(Nc1ccc(S(=O)(=O)Nc2ccc(Cl)nn2)cc1)C1=CCOC1=O (stereo partly drawn)
Result: -41.2

Request: // repeat for C=C1CC[C@@H]2[C@](C)(COC(C)=O)[C@H](OC(C)=O)CC[C@@]2(C)[C@H]1CC(Nc1ccc(S(=O)(=O)Nc2nccc(C)n2)cc1)C1=CCOC1=O (stereo partly drawn) and report
Result: 14.6

Request: Next compound: C=C1CC[C@@H]2[C@](C)(COC(C)=O)[C@H](OC(C)=O)CC[C@@]2(C)[C@H]1CC(Nc1ccc(S(=O)(=O)Nc2cc(C)on2)cc1)C1=CCOC1=O (stereo partly drawn)
Result: 30

---

- Tested on: HOP-62
- PROTOCOL SUMMARY: Growth inhibition of human HOP62 cells incubated for 48 hrs by sulforhodamine B assay
- Assay type: functional
- RUN CONDITIONS: HOP-62, 48 h
Respond with True for TGI values of 20 µM and above, False for values below.

Request: Does the compound C=C1CC[C@@H]2[C@](C)(COC(C)=O)[C@H](OC(C)=O)CC[C@@]2(C)[C@H]1CC(Nc1ccc(S(=O)(=O)Nc2cc(C)on2)cc1)C1=CCOC1=O (stereo not given in full) have recorded TGI that is 20 µM or more?
Result: True

Request: Entry to check: C=C1CC[C@@H]2[C@](C)(COC(C)=O)[C@H](OC(C)=O)CC[C@@]2(C)[C@H]1CC(Nc1ccc(S(=O)(=O)Nc2nccc(C)n2)cc1)C1=CCOC1=O (stereo not given in full)
Result: True

Request: # iterate: C=C1CC[C@@H]2[C@](C)(COC(C)=O)[C@H](OC(C)=O)CC[C@@]2(C)[C@H]1CC(Nc1ccc(S(=O)(=O)Nc2ccc(Cl)nn2)cc1)C1=CCOC1=O (stereo not given in full)
Result: False

Request: One more compound: C=C1CC[C@@H]2[C@](C)(COC(C)=O)[C@H](OC(C)=O)CC[C@@]2(C)[C@H]1CC(Nc1ccc(S(=O)(=O)Nc2nccs2)cc1)C1=CCOC1=O (stereo not given in full)
Result: True

Request: Param item: C=C1CC[C@@H]2[C@](C)(COC(C)=O)[C@H](OC(C)=O)CC[C@@]2(C)[C@H]1CC(Nc1ccc(S(=O)(=O)Nc2ncccn2)cc1)C1=CCOC1=O (stereo not given in full)
Result: False

---

- Test system: RPMI-8226
- PROTOCOL SUMMARY: Anticancer activity against human RPMI8226 cells assessed as cell growth at 10 uM after 48 hrs by sulforhodamine B assay relative to control
- Type: functional
- RUN CONDITIONS: RPMI-8226, 48 h, read-out: Activity
REPORTED METRIC: growth at 10 µM (%)
Numbers only; they are read as %.

Request: Please look up its growth at 10 µM: C=C1CC[C@@H]2[C@](C)(COC(C)=O)[C@H](OC(C)=O)CC[C@@]2(C)[C@H]1CC(Nc1ccc(S(=O)(=O)Nc2nccc(C)n2)cc1)C1=CCOC1=O (stereo partly specified)
Result: -5.56

Request: Same read-out for C=C1CC[C@@H]2[C@](C)(COC(C)=O)[C@H](OC(C)=O)CC[C@@]2(C)[C@H]1CC(Nc1ccc(S(=O)(=O)Nc2cc(C)on2)cc1)C1=CCOC1=O (stereo partly specified) ?
Result: -15.2

Request: How about this molecule: C=C1CC[C@@H]2[C@](C)(COC(C)=O)[C@H](OC(C)=O)CC[C@@]2(C)[C@H]1CC(Nc1ccc(S(=O)(=O)Nc2nccs2)cc1)C1=CCOC1=O (stereo partly specified)
Result: -13.3

Request: Then what about the molecule C=C1CC[C@@H]2[C@](C)(COC(C)=O)[C@H](OC(C)=O)CC[C@@]2(C)[C@H]1CC(Nc1ccc(S(=O)(=O)Nc2ncccn2)cc1)C1=CCOC1=O (stereo partly specified) ?
Result: -12.7

Request: Also C=C1CC[C@@H]2[C@](C)(COC(C)=O)[C@H](OC(C)=O)CC[C@@]2(C)[C@H]1CC(Nc1ccc(S(=O)(=O)Nc2nc(C)cc(C)n2)cc1)C1=CCOC1=O (stereo partly specified) ?
Result: 2.24

Request: Next record, please: C=C1CC[C@@H]2[C@](C)(COC(C)=O)[C@H](OC(C)=O)CC[C@@]2(C)[C@H]1CC(Nc1ccc(S(=O)(=O)Nc2ccc(Cl)nn2)cc1)C1=CCOC1=O (stereo partly specified)
Result: -19.2

---

- Tested on: SNB-75
- PROTOCOL SUMMARY: Growth inhibition of human SNB75 cells incubated for 48 hrs by sulforhodamine B assay
- Type: functional
- RUN CONDITIONS: SNB-75, 48 h
// returns False unless TGI is strictly below 10 µM, in which case True

Request: Please indicate whether the reported TGI of C=C1CC[C@@H]2[C@](C)(COC(C)=O)[C@H](OC(C)=O)CC[C@@]2(C)[C@H]1CC(Nc1ccc(S(=O)(=O)Nc2nccc(C)n2)cc1)C1=CCOC1=O (stereo not given in full) is strictly below 10 µM.
Result: False

Request: Here is the next compound: C=C1CC[C@@H]2[C@](C)(COC(C)=O)[C@H](OC(C)=O)CC[C@@]2(C)[C@H]1CC(Nc1ccc(S(=O)(=O)Nc2nccs2)cc1)C1=CCOC1=O (stereo not given in full)
Result: False

Request: Follow-up item: C=C1CC[C@@H]2[C@](C)(COC(C)=O)[C@H](OC(C)=O)CC[C@@]2(C)[C@H]1CC(Nc1ccc(S(=O)(=O)Nc2ncccn2)cc1)C1=CCOC1=O (stereo not given in full)
Result: True

Request: One more compound: C=C1CC[C@@H]2[C@](C)(COC(C)=O)[C@H](OC(C)=O)CC[C@@]2(C)[C@H]1CC(Nc1ccc(S(=O)(=O)Nc2ccc(Cl)nn2)cc1)C1=CCOC1=O (stereo not given in full)
Result: True

Request: Cool, now C=C1CC[C@@H]2[C@](C)(COC(C)=O)[C@H](OC(C)=O)CC[C@@]2(C)[C@H]1CC(Nc1ccc(S(=O)(=O)Nc2cc(C)on2)cc1)C1=CCOC1=O (stereo not given in full)
Result: False

---

- PROTOCOL SUMMARY: Growth inhibition of human NHDF after 72 hrs by CellTiter-Glo luminescent cell viability assay
- Format: cell-based
- RUN CONDITIONS: NHDF cells
REPORTED METRIC: GI50 at 72 h (nM)
Number in nM, nothing else.

Request: Could you share which GI50 at 72 h value was measured for C=C1CC[C@@H]2[C@](C)(COC(C)=O)[C@H](OC(C)=O)CC[C@@]2(C)[C@H]1CC(Nc1ccc(S(=O)(=O)Nc2ccc(Cl)nn2)cc1)C1=CCOC1=O (some centres not stated) ?
Result: 1540

Request: Another compound to look at: "CN(C)C/C=C/C(=O)Nc1ccc(C(=O)Nc2ccc(Nc3ncc(Cl)c(-c4c[nH]c5ccccc45)n3)cc2)cc1"
Result: 46.6

Origin of values: ChEMBL document CHEMBL4033712
